Tested on: human β2GPI-dependent antiphospholipid antibody
Assay: Micropanning of mutant domain 1 phage, patient antibodies
Type: binding
Conditions: Table 7A, antibody 6501
RECORDED ENDPOINT: μpan score
// keep it numeric: no unit symbol after the value

Below, each entry is followed by its recorded μpan score result.
MOLECULE | μpan score
2C3: phage clone, domain 1 mutant P54S (protein) GRTCPKPDDLPFSTVVPLKTFYEPGEEITYSCKPGYVSRGGMRKFICPLTGLWSINTLKCTPRV | 1
2A1: phage clone, domain 1 mutant T20S (protein) GRTCPKPDDLPFSTVVPLKSFYEPGEEITYSCKPGYVSRGGMRKFICPLTGLWPINTLKCTPRV | 3

With those in mind, consider the next molecule.
Give its μpan score value. Item: 2D12: phage clone, domain 1 mutant F45L (protein) GRTCPKPDDLPFSTVVPLKTFYEPGEEITYSCKPGYVSRGGMRKLICPLTGLWPINTLKCTPRV
3
